meta.source: ChEMBL document CHEMBL1127462

# TARGET SYSTEM: Thromboxane-A synthase (Rattus norvegicus, UniProt P49430)
# Sequence (P49430 whole entry): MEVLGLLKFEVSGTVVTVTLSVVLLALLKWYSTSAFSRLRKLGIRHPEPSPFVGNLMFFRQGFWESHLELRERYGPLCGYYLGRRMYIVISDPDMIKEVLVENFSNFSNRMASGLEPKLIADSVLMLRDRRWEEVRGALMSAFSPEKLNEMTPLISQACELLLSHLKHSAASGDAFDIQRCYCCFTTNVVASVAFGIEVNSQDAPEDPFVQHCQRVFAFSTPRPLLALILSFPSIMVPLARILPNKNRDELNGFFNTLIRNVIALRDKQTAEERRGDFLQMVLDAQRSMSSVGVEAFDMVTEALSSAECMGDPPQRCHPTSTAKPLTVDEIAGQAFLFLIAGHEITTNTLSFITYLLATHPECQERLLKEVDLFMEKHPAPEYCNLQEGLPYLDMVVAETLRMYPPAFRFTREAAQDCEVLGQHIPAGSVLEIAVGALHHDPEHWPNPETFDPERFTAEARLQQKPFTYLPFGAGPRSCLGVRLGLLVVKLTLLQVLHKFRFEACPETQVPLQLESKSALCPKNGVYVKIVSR
# EXPERIMENTAL DETAILS: Inhibitory activity against the production of thromboxane B2 (TXB2) in glycogen-induced peritoneal cells of rat
PROPERTY MEASURED: log10 IC50 (log10 of the value in nM)
Values below are the log10 of the recorded IC50, with nM as the unit.

What value of log10 IC50 has been recorded for this entry: CCc1c(O)c(OC)c(Cc2cccnc2)c2nc(NC)sc12
2.52

What value of log10 IC50 has been recorded for this entry: COc1cc2nc(NCc3cccnc3)sc2c(OC)c1O
3.74

What value of log10 IC50 has been recorded for this entry: Cc1c(O)c(C)c2sc(NCc3cccnc3)nc2c1C
3.30

What value of log10 IC50 has been recorded for this entry: CCCNc1nc2c(Cc3cccnc3)c(C)c(O)c(C)c2s1.Cl.Cl
1.95

What value of log10 IC50 has been recorded for this entry: Cc1c(O)c(C)c2sc(N)nc2c1Cc1cccnc1
0.30

What value of log10 IC50 has been recorded for this entry: COc1c(O)c(C)c2sc(N)nc2c1Cc1cccnc1.Cl.Cl
2.04

What value of log10 IC50 has been recorded for this entry: Cc1c(O)c(Cc2cccnc2)c2sc(N)nc2c1C.Cl.Cl
3.72

What value of log10 IC50 has been recorded for this entry: CNc1nc2c(Cc3cccnc3)c(OC)c(O)c(C)c2s1
3.11

What value of log10 IC50 has been recorded for this entry: CCNc1nc2c(Cc3cccnc3)c(C)c(O)c(C)c2s1
2.00

What value of log10 IC50 has been recorded for this entry: CCc1c(O)c(OC)c(Cc2cccnc2)c2nc(N)sc12
2.26

What value of log10 IC50 has been recorded for this entry: Oc1cc(-c2ccccc2)c2nc(NCc3cccnc3)sc2c1
3.15

###

Please provide measured IC50 for the entries that follow.
# Species on record: Homo sapiens
# EXPERIMENTAL DETAILS: Tested for inhibitory activity against the production of leukotriene B4 (LTB4) in human whole blood
# Assay type: functional, organism-based
Give the number; µM is assumed, so skip it.

What value of IC50 has been recorded for this entry: CCNc1nc2c(C)c(C)c(O)c(Cc3cccnc3)c2s1
0.5

What value of IC50 has been recorded for this entry: CCNc1nc2c(Cc3cccnc3)c(C)c(O)c(C)c2s1
1.1

What value of IC50 has been recorded for this entry: CNc1nc2c(Cc3cccnc3)c(C)c(O)c(C)c2s1
0.83

What value of IC50 has been recorded for this entry: Cc1c(O)c(C)c2sc(NCc3ccc(S(N)(=O)=O)cc3)nc2c1C
24

###

Please provide measured pIC50 for the entries that follow.
# TARGET SYSTEM: Thromboxane-A synthase (Rattus norvegicus, UniProt P49430)
# EXPERIMENTAL DETAILS: Inhibitory activity against the production of thromboxane B2 (TXB2) in glycogen-induced peritoneal cells of rat
// field semantics: pIC50 = negative decimal log of concentration (mol/L)

What value of pIC50 has been recorded for this entry: CCNc1nc2c(C)c(C)c(O)c(Cc3cccnc3)c2s1
5.70

What value of pIC50 has been recorded for this entry: Cc1c(O)c2ccccc2c2nc(NCc3cccnc3)sc12
5.40

What value of pIC50 has been recorded for this entry: CCNc1nc2c(C)c(Cc3cccnc3)c(O)c(C)c2s1
6.19

What value of pIC50 has been recorded for this entry: Cc1cc(O)c(C)c2sc(NCc3cccnc3)nc12
5.36
